Target: PI3Kδ (Homo sapiens (Human))
Sequence (O00329 whole entry): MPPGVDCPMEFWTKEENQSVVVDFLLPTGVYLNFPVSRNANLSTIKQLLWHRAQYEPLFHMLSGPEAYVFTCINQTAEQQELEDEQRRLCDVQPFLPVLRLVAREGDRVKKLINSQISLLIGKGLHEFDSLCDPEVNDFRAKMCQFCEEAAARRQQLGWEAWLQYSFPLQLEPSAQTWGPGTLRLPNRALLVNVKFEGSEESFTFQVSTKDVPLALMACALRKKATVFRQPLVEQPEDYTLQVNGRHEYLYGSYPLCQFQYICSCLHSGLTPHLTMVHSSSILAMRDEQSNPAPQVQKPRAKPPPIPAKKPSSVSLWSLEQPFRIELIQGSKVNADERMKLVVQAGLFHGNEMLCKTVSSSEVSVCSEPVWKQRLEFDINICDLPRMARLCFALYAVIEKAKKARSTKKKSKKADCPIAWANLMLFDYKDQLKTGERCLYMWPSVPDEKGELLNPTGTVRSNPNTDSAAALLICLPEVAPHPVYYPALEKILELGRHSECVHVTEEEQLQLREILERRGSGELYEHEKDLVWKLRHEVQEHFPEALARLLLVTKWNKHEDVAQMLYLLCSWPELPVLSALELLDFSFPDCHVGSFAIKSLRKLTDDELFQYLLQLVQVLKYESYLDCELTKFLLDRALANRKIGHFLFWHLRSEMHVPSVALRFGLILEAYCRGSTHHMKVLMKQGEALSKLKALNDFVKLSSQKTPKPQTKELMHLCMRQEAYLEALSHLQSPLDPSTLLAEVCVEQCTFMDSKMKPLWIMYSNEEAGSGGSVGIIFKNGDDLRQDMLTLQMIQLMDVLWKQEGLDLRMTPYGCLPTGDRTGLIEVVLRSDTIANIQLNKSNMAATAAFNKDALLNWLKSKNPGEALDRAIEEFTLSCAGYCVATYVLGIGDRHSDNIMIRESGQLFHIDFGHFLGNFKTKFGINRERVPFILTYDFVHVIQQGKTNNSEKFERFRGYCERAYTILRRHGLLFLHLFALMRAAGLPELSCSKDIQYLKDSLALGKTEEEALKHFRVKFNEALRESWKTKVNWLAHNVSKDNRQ
Sequence (P27986 whole entry partner): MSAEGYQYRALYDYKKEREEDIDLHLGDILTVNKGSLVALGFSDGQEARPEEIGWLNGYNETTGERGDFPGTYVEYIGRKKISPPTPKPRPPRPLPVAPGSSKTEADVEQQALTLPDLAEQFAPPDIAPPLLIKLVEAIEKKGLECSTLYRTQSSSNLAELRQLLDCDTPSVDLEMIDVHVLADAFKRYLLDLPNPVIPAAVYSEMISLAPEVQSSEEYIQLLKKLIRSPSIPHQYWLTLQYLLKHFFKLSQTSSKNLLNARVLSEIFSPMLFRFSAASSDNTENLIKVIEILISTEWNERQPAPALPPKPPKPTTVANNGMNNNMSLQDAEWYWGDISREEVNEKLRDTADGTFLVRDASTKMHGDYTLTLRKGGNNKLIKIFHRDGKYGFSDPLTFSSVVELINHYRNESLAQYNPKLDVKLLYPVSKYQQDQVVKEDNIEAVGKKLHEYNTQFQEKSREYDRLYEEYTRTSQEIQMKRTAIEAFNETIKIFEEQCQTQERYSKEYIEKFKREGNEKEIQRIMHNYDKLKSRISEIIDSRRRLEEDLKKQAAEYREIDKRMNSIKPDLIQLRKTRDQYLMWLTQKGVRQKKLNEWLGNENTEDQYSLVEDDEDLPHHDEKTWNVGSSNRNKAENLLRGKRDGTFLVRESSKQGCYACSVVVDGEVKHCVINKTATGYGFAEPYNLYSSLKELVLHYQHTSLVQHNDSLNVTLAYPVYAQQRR
pIC50: −log10 of the molar value.
REPORTED_METRIC: pIC50

COc1ncc(-c2nc(N3CCOCC3)nc3c(CN4CCN(C)C(=O)C4)c(C)sc23)cc1NS(C)(=O)=O [Compound 140]    8.49

I: COc1ncc(-c2nc(N3CCOCC3)nc3c(CN(C)C)c(C)sc23)cc1NS(C)(=O)=O [Compound 94]
II: COc1ncc(-c2nc(N3CCOCC3)nc3c(CN4CCN(C5CC(C)OC(C)C5)CC4)csc23)cc1NS(C)(=O)=O (stereo not drawn) [Compound 77]
III: COc1ncc(-c2nc(N3CCOCC3)nc3cc(C)sc23)cc1NS(C)(=O)=O [Compound 97]
Input line: Endpoint returns the given molecules ordered by ascending pIC50. Submit the labels in the order that the ranking request calls for.
Output line: III, I, II

a: COc1ncc(-c2nc(N3CCOCC3)nc3c(CN4CCC(OC)CC4)c(C)sc23)cc1NS(C)(=O)=O [Compound 83]
b: COc1ncc(-c2nc(N3CCOCC3)nc3c(CN4CCN(C)CC4)csc23)cc1NS(=O)(=O)c1ccc(F)cc1F [Compound 68]
c: COc1ncc(-c2nc(N3CCOCC3)nc3c(CN4CC5CC4CN5C4COC4)csc23)cc1NS(C)(=O)=O (stereo not drawn) [Compound 48]
Input line: List these items ordered by pIC50, big to small. Submit the labels in the order that the ranking request calls for.
Output line: c, a, b
(c: 8.16, a: 7.92, b: 7.15)

I: COc1ncc(-c2nc(N3CCOCC3)nc3c(CN4CCCC4)c(C)sc23)cc1NS(C)(=O)=O [Compound 102]
II: Cc1cn(-c2nc(N3CCOCC3)nc3c(CN4CCN(C(=O)C5CC5)CC4)csc23)c(C)n1 [Compound 37]
Input line: Higher pIC50: I or II ? Indicate your choice by writing its label.
Output line: I
(I: 8.03, II: 7.54)

====

Biological target: PI3Kα (Homo sapiens (Human), UniProt P42336)
Sequence (P42336 whole entry): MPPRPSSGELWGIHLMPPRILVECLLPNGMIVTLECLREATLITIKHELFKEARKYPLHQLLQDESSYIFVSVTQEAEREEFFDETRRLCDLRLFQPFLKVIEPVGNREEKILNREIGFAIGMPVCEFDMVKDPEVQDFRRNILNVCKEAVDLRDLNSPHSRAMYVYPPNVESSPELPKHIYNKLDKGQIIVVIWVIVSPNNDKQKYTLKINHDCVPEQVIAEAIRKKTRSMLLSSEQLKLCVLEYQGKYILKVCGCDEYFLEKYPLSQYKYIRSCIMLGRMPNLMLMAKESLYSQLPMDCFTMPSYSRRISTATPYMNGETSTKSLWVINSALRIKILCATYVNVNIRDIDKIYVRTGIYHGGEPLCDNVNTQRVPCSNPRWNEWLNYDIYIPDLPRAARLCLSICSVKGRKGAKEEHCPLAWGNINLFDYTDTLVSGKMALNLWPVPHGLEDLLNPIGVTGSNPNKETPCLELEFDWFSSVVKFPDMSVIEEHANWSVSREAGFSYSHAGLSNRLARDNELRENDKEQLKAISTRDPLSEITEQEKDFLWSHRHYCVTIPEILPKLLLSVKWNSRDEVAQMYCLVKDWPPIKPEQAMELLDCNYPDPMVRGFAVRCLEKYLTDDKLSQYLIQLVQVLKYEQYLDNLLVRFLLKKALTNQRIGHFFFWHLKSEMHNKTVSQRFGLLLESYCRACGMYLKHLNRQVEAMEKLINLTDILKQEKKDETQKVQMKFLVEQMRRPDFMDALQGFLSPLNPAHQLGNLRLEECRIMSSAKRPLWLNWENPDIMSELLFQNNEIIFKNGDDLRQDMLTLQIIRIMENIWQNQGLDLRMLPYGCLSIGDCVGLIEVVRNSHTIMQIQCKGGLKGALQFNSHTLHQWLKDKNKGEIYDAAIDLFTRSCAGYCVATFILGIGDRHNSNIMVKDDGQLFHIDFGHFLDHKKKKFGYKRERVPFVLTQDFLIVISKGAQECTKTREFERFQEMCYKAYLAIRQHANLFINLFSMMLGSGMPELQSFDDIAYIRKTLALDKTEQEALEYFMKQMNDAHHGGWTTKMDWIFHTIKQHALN
Sequence (P27986 whole entry partner): as the sequence (P27986 whole entry partner) above
Test: PI3Kα enzyme activity inhibition IC50 evaluation assay
Format: biochemical
Settings: ratio PI3Kα vs PI3Kδ
REPORTED_METRIC: α/δ selectivity

Observe how each entry below is paired with its result.
COc1ncc(-c2nc(N3CCOCC3)nc3c(OC4CCC(N5CCCCC5)CC4)c(C)sc23)cc1NS(C)(=O)=O (centres unmarked)    42
COc1ncc(-c2nc(N3CCOCC3)nc3c(OC4CCOCC4)c(C)sc23)cc1NS(C)(=O)=O    12
COc1ncc(-c2nc(N3CCOCC3)nc3c(CN4CCN(C(C)(C)C(N)=O)CC4)csc23)cc1NS(C)(=O)=O    103
COc1ncc(-c2nc(N3CCOCC3)nc3c(CN4CCC(=O)CC4)c(C)sc23)cc1NS(C)(=O)=O    45
COc1ncc(-c2nc(N3CCOCC3)nc3c(CN4CCCC4)c(C)sc23)cc1NS(C)(=O)=O    146
COc1ncc(-c2nc(N3CCOCC3)nc3c(CN4CC(C(C)(C)O)C4)c(C)sc23)cc1NS(C)(=O)=O    41
CCN(CC)C1CCN(Cc2c(C)sc3c(-c4cnc(OC)c(NS(C)(=O)=O)c4)nc(N4CCOCC4)nc23)CC1    203
COc1ncc(-c2nc(N3CCOCC3)nc3c(CN4CCC(N5CCC(F)CC5)CC4)c(C)sc23)cc1NS(C)(=O)=O    223

A: COc1ncc(-c2nc(N3CCOCC3)nc3c(CN4CCC(O)CC4)c(C)sc23)cc1NS(C)(=O)=O
B: COc1ncc(-c2nc(N3CCOCC3)nc3c(CN4CCN(C(C)(C)C)CC4)csc23)cc1NS(C)(=O)=O
C: COc1ncc(-c2nc(N3CCOCC3)nc3c(CN4CCC(N5CC(F)(F)C5)CC4)c(C)sc23)cc1NS(C)(=O)=O
D: COc1ncc(-c2nc(N3CCOCC3)nc3c(CN4CCC(N(C)C(=O)OC(C)(C)C)CC4)csc23)cc1NS(C)(=O)=O
Input line: List these items ordered by α/δ selectivity, big to small. Submit the labels in the order that the ranking request calls for.
Output line: D, C, A, B

Where do these numbers come from? They come from patent US9745321B2.
